Form field: PBMCs, anti-mFc 647 CD4+ gate - RL1 Binding (one value per entry).
Molecular target: T1, human CD4 on the surface of SKW3 cells or human PBMCs (human, UniProt P01730 26-458)
T1 construct: whole, on cells; SKW3 CD4 knockout cells served as the negative cell line; also called hCD4; SKW3 WT
Assay: FACS confirmation, supernatant on human PBMCs, anti-mouse Fc A647, CD4+ gate
experimental_endpoint: PBMCs, anti-mFc 647 CD4+ gate - RL1 Binding

binder	observed
75110_05B13A (antibody, V domains shown, Tested here as non-clonal hybridoma supernatant from AlivaMab Mouse Kappa mice (detected with anti-mouse Fc and anti-human kappa)) VH: QVLLEQWGAGLLKPSETLSLTCAVYGGSFSGYYWTWIRQPPGKGLEWIGEINHRGSTNYNPSLKSRVTISIDTSKNQFSLKVKSVTAADTAMYYCTRPDSNWFDPWGQGTLVTVSS VL: DIQMTQSPSSVSASVGDRVTITCRASQDISNWLAWYQQKPGKAPKLLIFAASSLQSGVPSRFSGSGSGTDFTLTISSLQPEDFATYYCQQANSFPLTFGGGTKVEIK	228000
75110_03L12A (antibody, V domains shown, Tested here as non-clonal hybridoma supernatant from AlivaMab Mouse Kappa mice (detected with anti-mouse Fc and anti-human kappa)) VH: QVQLQQWGAGLLKPSETLSLTCAVYGGSFSGYYWSWIRQPPGKGLEWIGEINHSGSTNYNPSLKSRVTISVDTSENQFSLTLISVTAADTAVYYCVRLINWFDPWGQGTLVTVSS VL: DIQMTQSPSSVSASVGDRVTITCRASQDISNWLAWYQQKPGKAPKLLIFAASSLQSGVPSRFSGSGSGTDFTLTISSLQPDDFATYYCQQANSFPYTFGQGTNLGIK	229000
75110_09G15A (antibody, V domains shown, Tested here as non-clonal hybridoma supernatant from AlivaMab Mouse Kappa mice (detected with anti-mouse Fc and anti-human kappa)) VH: EVQLVESGGGLVQPGGSLRLSCAASGFTFSDYWMSWVRQAPGKGLEWVANINQDGSEKYSVDSVKGRFTISRDNAKNSLYLQMNSLRAEDTAIFYCAREGGQWLALDYWGQGTLVTVSS VL: DIQMTQSPSSVSASVGDRVTITCRASQGISSWLAWYQQKPGKAPKLLIYGASSLQSGVPSRFSGSGSGTDFTLTINSLQPEDFTTYYCQQANIFPWTFGQGTKVEIK	304000
75110_03D16A (antibody, V domains shown, Tested here as non-clonal hybridoma supernatant from AlivaMab Mouse Kappa mice (detected with anti-mouse Fc and anti-human kappa)) VH: EVQLVESGGGLVQPGGSLRLSCAASGFTFSSYWMSWVRQAPGKGLEWVANINQDGGEKYYVDSVKGRFTISRDNAKNSLYLQMNSLRAEDTAVYYCVREGGQWLALDYWGQGTLVTVSS VL: DIQMTQSPSSVSASVGDRVTITCRASQGISSWLTWYQQKPGKAPKFLIYAASSLQSGVPSRFSGSGFGTDFTLTISSLQPEDFATYYCQQANSFPWTFGQGTKVEIK	319000
75110_04B08A (antibody, V domains shown, Tested here as non-clonal hybridoma supernatant from AlivaMab Mouse Kappa mice (detected with anti-mouse Fc and anti-human kappa)) VH: QVQLVESGGGVVQPGRSLRLSCTASGFNFINYGIHWVRQAPGKGLEWVTIIWYDGSKKYYADSVKGRFAISRDNSKNTLYLQMNSLRAEDTAVYYCAREDDWNDGLAYWGQGTLVTVSS VL: AIQMTQSPSSLSASVGDRVTITCRASQDIRNDLGWYQQKPGKAPNLLIYAASNLQSGVPSRFSGSGSGTDFTLTISSLQPEDFATYYCLQDSNYPRTFGQGTKVEIK	274000

Data provenance: patent US20220112288A1
